Test system: 967376-340-R-J2-PDC multicell spheroid viability
Assay: Anticancer human tumor 967376-340-R-J2-PDC patient-derived colon adenocarcinoma cell line growth inhibition [PI3K]
Details: second compound 10 µM; first compound 0.0316 µM; hits give low values
Values of viability, T/C strictly less than 60% map to label 1, and values of at least 60% map to label 0.

Here's what some known entries look like.
{"compound": "CC1(C)CCC(CN2CCN(c3ccc(C(=O)NS(=O)(=O)c4ccc(NCC5CCOCC5)c([N+](=O)[O-])c4)c(Oc4cnc5[nH]ccc5c4)c3)CC2)=C(c2ccc(Cl)cc2)C1 + CC(Nc1ncnc2nc[nH]c12)c1cc2cccc(Cl)c2c(=O)n1-c1ccccc1", "assigned label": "label 1"}
{"compound": "CC1(C)CCC(CN2CCN(c3ccc(C(=O)NS(=O)(=O)c4ccc(NCC5CCOCC5)c([N+](=O)[O-])c4)c(Oc4cnc5[nH]ccc5c4)c3)CC2)=C(c2ccc(Cl)cc2)C1 + Cc1nc(NC(=O)N2CCCC2C(N)=O)sc1-c1ccnc(C(C)(C)C(F)(F)F)c1", "assigned label": "label 0"}
{"compound": "Cn1ncnc1[C@H]1c2n[nH]c(=O)c3cc(F)cc(c23)N[C@@H]1c1ccc(F)cc1 + Cc1nc(NC(=O)N2CCCC2C(N)=O)sc1-c1ccnc(C(C)(C)C(F)(F)F)c1", "assigned label": "label 1"}
{"compound": "C[C@@H](NC(=O)c1ncnc(N)c1Cl)c1ncc(C(=O)Nc2cc(C(F)(F)F)c(Cl)cn2)s1 + CC(Nc1ncnc2nc[nH]c12)c1cc2cccc(Cl)c2c(=O)n1-c1ccccc1", "assigned label": "label 0"}
{"compound": "C[C@@H](NC(=O)c1ncnc(N)c1Cl)c1ncc(C(=O)Nc2cc(C(F)(F)F)c(Cl)cn2)s1 + Cc1nc(NC(=O)N2CCCC2C(N)=O)sc1-c1ccnc(C(C)(C)C(F)(F)F)c1", "assigned label": "label 1"}
{"compound": "CC(C)NCC(C(=O)N1CCN(c2ncnc3c2C(C)CC3O)CC1)c1ccc(Cl)cc1 (stereo not drawn) + CC(Nc1ncnc2nc[nH]c12)c1cc2cccc(Cl)c2c(=O)n1-c1ccccc1", "assigned label": "label 0"}

-- ask # check: viability, T/C < 60% for CC(C)n1nc(-c2ccc3oc(N)nc3c2)c2c(N)ncnc21 + Cc1nc(NC(=O)N2CCCC2C(N)=O)sc1-c1ccnc(C(C)(C)C(F)(F)F)c1
-- reply label 1

-- ask Please state whether viability, T/C is below 60% for CC(=O)c1c(C)c2cnc(Nc3ccc(N4CCNCC4)cn3)nc2n(C2CCCC2)c1=O + Cc1nc(NC(=O)N2CCCC2C(N)=O)sc1-c1ccnc(C(C)(C)C(F)(F)F)c1
-- reply label 1

###

System: 967376-340-R-J2-PDC multicell spheroid viability
Assay: Anticancer human tumor 967376-340-R-J2-PDC cell line growth inhibition [PI3K];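 note: luminescence used as surrogate of cell viability; spheroids exposed to agents for 7 days before read-out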
Conditions: second compound 10 µM; first compound 0.0316 µM; hits give low values
assay endpoint: viability, T/C

{"compound": "CC(C)NCC(C(=O)N1CCN(c2ncnc3c2C(C)CC3O)CC1)c1ccc(Cl)cc1 (stereo unspecified) + Cc1nc(NC(=O)N2CCCC2C(N)=O)sc1-c1ccnc(C(C)(C)C(F)(F)F)c1", "test system": "967376-340-R-J2-PDC multicell spheroid viability", "assay endpoint": "viability, T/C", "result": "56%"}
{"compound": "CC(Cn1ccc(-c2ccc(C#N)c(Cl)c2)n1)NC(=O)c1cc(C(C)O)[nH]n1 (stereo unspecified) + Cc1nc(NC(=O)N2CCCC2C(N)=O)sc1-c1ccnc(C(C)(C)C(F)(F)F)c1", "test system": "967376-340-R-J2-PDC multicell spheroid viability", "assay endpoint": "viability, T/C", "result": "57.3%"}

-- ask Item under review: Cn1nccc1Nc1nccc(-c2ccn(C(CO)c3ccc(Cl)c(F)c3)c(=O)c2)n1 (stereo unspecified) + CC(Nc1ncnc2nc[nH]c12)c1cc2cccc(Cl)c2c(=O)n1-c1ccccc1 . Reported viability, T/C?
-- reply 95.7%

-- ask Suppose we examine the compound Cn1nccc1Nc1nccc(-c2ccn(C(CO)c3ccc(Cl)c(F)c3)c(=O)c2)n1 (stereo unspecified) + Cc1nc(NC(=O)N2CCCC2C(N)=O)sc1-c1ccnc(C(C)(C)C(F)(F)F)c1 ; what viability, T/C value has been reported?
-- reply 39.9%

-- ask Which viability, T/C is reported for this compound? CCCS(=O)(=O)Nc1ccc(F)c(C(=O)c2c[nH]c3ncc(-c4ccc(Cl)cc4)cc23)c1F + Cc1nc(NC(=O)N2CCCC2C(N)=O)sc1-c1ccnc(C(C)(C)C(F)(F)F)c1
-- reply 59.7%

###

System: 967376-340-R-J2-PDC multicell spheroid viability
Assay: Anticancer human tumor 967376-340-R-J2-PDC cell line growth inhibition [PI3K];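 note: luminescence used as surrogate of cell viability; spheroids exposed to agents for 7 days before read-out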
Settings: second compound 0.0316 µM; first compound 0.0316 µM; hits give low values
From the text: Combinatorial screen of targeted agents with the PI3K inhibitors inavolisib, alpelisib, duvelisib, and copanlisib in multi-cell type tumor spheroids A high-throughput screen of multi-cell type tumor spheroids was designed to identify active combinations of targeted small molecules and PI3K pathway inhibitors. […] Compounds. […] If the clinical Cmax for an agent had not been determined, the highest concentration tested was 10 microM. […]
assay endpoint: viability, T/C (%)
Write the answer as a number in %, unit excluded.

// worked examples, viability, T/C included
{"molecule": "CC(Cn1ccc(-c2ccc(C#N)c(Cl)c2)n1)NC(=O)c1cc(C(C)O)[nH]n1 (stereo unspecified) + CC(Nc1ncnc2nc[nH]c12)c1cc2cccc(Cl)c2c(=O)n1-c1ccccc1", "unit spec": "%", "viability, T/C": 95.7}
{"molecule": "CC(=O)c1c(C)c2cnc(Nc3ccc(N4CCNCC4)cn3)nc2n(C2CCCC2)c1=O + CC(Nc1ncnc2nc[nH]c12)c1cc2cccc(Cl)c2c(=O)n1-c1ccccc1", "unit spec": "%", "viability, T/C": 79.9}
{"molecule": "C[C@@H](NC(=O)c1ncnc(N)c1Cl)c1ncc(C(=O)Nc2cc(C(F)(F)F)c(Cl)cn2)s1 + COc1c(OCCCN2CCOCC2)ccc2c3n(c(=NC(=O)c4cnc(N)nc4)nc12)CCN3", "unit spec": "%", "viability, T/C": 67.7}
{"molecule": "CC1(C)CCC(CN2CCN(c3ccc(C(=O)NS(=O)(=O)c4ccc(NCC5CCOCC5)c([N+](=O)[O-])c4)c(Oc4cnc5[nH]ccc5c4)c3)CC2)=C(c2ccc(Cl)cc2)C1 + CC(Nc1ncnc2nc[nH]c12)c1cc2cccc(Cl)c2c(=O)n1-c1ccccc1", "unit spec": "%", "viability, T/C": 92}
{"molecule": "Cn1nccc1Nc1nccc(-c2ccn(C(CO)c3ccc(Cl)c(F)c3)c(=O)c2)n1 (stereo unspecified) + Cc1nc(NC(=O)N2CCCC2C(N)=O)sc1-c1ccnc(C(C)(C)C(F)(F)F)c1", "unit spec": "%", "viability, T/C": 66.3}
{"molecule": "CC(C)NCC(C(=O)N1CCN(c2ncnc3c2C(C)CC3O)CC1)c1ccc(Cl)cc1 (stereo unspecified) + CC(Nc1ncnc2nc[nH]c12)c1cc2cccc(Cl)c2c(=O)n1-c1ccccc1", "unit spec": "%", "viability, T/C": 100}
{"molecule": "C=CC(=O)N1CCN(c2nc(=O)n(-c3c(C)ccnc3C(C)C)c3nc(-c4c(O)cccc4F)c(F)cc23)C(C)C1 (stereo unspecified) + Cc1nc(NC(=O)N2CCCC2C(N)=O)sc1-c1ccnc(C(C)(C)C(F)(F)F)c1", "unit spec": "%", "viability, T/C": 85.5}
{"molecule": "Cn1ncc(Cl)c1-c1cc(C(=O)NC(CN)Cc2cccc(F)c2)sc1Cl (stereo unspecified) + CC(Nc1ccc2c(c1)OCCn1cc(N3C(=O)OCC3C(F)F)nc1-2)C(N)=O", "unit spec": "%", "viability, T/C": 91.2}

-- ask Given the entry Cn1ncc(Cl)c1-c1cc(C(=O)NC(CN)Cc2cccc(F)c2)sc1Cl (stereo unspecified) + COc1c(OCCCN2CCOCC2)ccc2c3n(c(=NC(=O)c4cnc(N)nc4)nc12)CCN3 , report its measured viability, T/C.
-- reply 84.1

-- ask Record request: viability, T/C value, item CCCS(=O)(=O)Nc1ccc(F)c(C(=O)c2c[nH]c3ncc(-c4ccc(Cl)cc4)cc23)c1F + CC(Nc1ccc2c(c1)OCCn1cc(N3C(=O)OCC3C(F)F)nc1-2)C(N)=O
-- reply 72

-- ask Consider the molecule CC(C)n1nc(-c2ccc3oc(N)nc3c2)c2c(N)ncnc21 + Cc1nc(NC(=O)N2CCCC2C(N)=O)sc1-c1ccnc(C(C)(C)C(F)(F)F)c1 and give its measured viability, T/C.
-- reply 70.5

-- ask // viability, T/C lookup, key: CNC(=O)c1ccc(N2C(=S)N(c3ccc(C#N)c(C(F)(F)F)c3)C(=O)C2(C)C)cc1F + Cc1nc(NC(=O)N2CCCC2C(N)=O)sc1-c1ccnc(C(C)(C)C(F)(F)F)c1
-- reply 72.6
